- tested on: IRAK4 (Homo sapiens)
- Construct: Degradation of IRAK4 in OCI-LY10 was quantitatively measured using Meso Scale Discovery technology; endogenous in cells; host or cells: OCI-LY10
- Sequence (Q9NWZ3 1-460): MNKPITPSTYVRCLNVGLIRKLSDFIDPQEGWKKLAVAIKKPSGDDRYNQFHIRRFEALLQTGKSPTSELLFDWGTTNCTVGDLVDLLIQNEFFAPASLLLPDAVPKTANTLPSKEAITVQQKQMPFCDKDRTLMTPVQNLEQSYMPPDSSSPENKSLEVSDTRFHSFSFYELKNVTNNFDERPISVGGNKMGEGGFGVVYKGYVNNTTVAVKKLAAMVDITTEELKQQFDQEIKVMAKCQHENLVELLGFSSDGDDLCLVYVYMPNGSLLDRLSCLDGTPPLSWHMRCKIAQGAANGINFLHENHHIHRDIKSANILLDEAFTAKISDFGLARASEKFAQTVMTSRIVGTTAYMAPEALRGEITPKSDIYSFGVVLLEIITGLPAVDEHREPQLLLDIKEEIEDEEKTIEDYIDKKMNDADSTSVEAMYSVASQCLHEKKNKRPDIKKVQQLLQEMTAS
- test method notes: IRAK4 MSD Degradation in OCI-LY10
- Assay type: cell-based
- condition: OCI-LY10 cells, 4 hrs incubation, MSD; read-out: IRAK4 degradation in OCI-LY10 at 4 hrs: DC50
Listing of recorded DC50 by entry.

Req: Given the molecule `O=C1CCN(c2cncc3c(C#CCO[C@H]4CCN(C[C@H]5CC[C@H](n6cc(NC(=O)c7cnn8ccc(N9C[C@H]%10C[C@@H]9CO%10)nc78)c(C(F)F)n6)CC5)C[C@H]4F)cccc23)C(=O)N1` , what is its reported DC50?
Resp: < 10 nM

Req: Another: Cc1ccc(-c2nn([C@H]3CC[C@H](CN4CCC(OCC#Cc5cccc6c5n(C)c(=O)n6C5CCC(=O)NC5=O)CC4)CC3)cc2NC(=O)c2cnn3cccnc23)nc1 (stereo partly shown) [I-173]
Resp: > 200 nM

Req: Another: Cn1c(=O)n(C2CCC(=O)NC2=O)c2cccc(C#CCN3CCN(C[C@H]4CC[C@H](n5cc(NC(=O)c6cnn7ccc(N8CCCOCC8)nc67)c(C(F)F)n5)CC4)CC3)c21 (stereo partly shown)
Resp: > 200 nM

Req: Another: `C[C@@H]1CN(C[C@H]2CC[C@H](n3cc(NC(=O)c4cnn5ccc(N6C[C@H]7C[C@@H]6CO7)nc45)c(C(F)F)n3)CC2)CC[C@H]1OCC#Cc1cccc2c(N3CCC(=O)NC3=O)cncc12`
Resp: 10 to 100 nM

Req: Another: CN(C[C@H]1CC[C@H](n2cc(NC(=O)c3cnn4ccc(N5CCSCC5)nc34)c(C(F)F)n2)CC1)C1CCN(c2cccc3c2n(C)c(=O)n3C2CCC(=O)NC2=O)CC1(F)F (stereo partly shown)
Resp: > 200 nM

Req: Another: Cn1c(=O)n(C2CCC(=O)NC2=O)c2cccc([C@H]3CCN(C[C@H]4CC[C@H](n5cc6cc(NC(=O)c7cccc(C#N)n7)ncc6n5)CC4)C[C@@H]3F)c21 (stereo partly shown)
Resp: > 200 nM

Req: Another: COc1ccc2c(c1C#CCN1CCN(C[C@H]3CC[C@H](n4cc(NC(=O)c5cnn6ccc(N7C[C@H]8C[C@@H]7CO8)nc56)c(C(F)F)n4)CC3)CC1)n(C)c(=O)n2C1CCC(=O)NC1=O (stereo partly shown)
Resp: < 10 nM
